Recorded TGI by entry
tested on: HCT-15 colon; test: NCI tumour cell line growth inhibition, 48 h
measure: TGI

compound=C[n+]1cccc(NC(=O)c2ccc(NC(=O)C34CCC(C(=O)Nc5ccc(C(=O)Nc6ccc[n+](C)c6)cc5)(CC3)CC4)cc2)c1 measure=TGI reported_value="> 100 µM"
compound="Cc1ccc(CC2(C(=O)O)Cc3ccc(C)cc3C2)cc1 (centres undefined)" measure=TGI reported_value="> 100 µM"
compound=Cc1ccc(O)c(C(c2cccc(C(c3cc(C)ccc3O)c3cc(C)ccc3O)c2)c2cc(C)ccc2O)c1 measure=TGI reported_value="3.31 µM"
compound=Oc1ccc(C=Nc2ccccc2O)cc1 measure=TGI reported_value="> 100 µM"
compound=O=C(COc1ccc(Cl)c(Cl)c1)Nc1ccc[n+](Cc2ccc(S(=O)(=O)F)c(Cl)c2)c1 measure=TGI reported_value="> 100 µM"
compound=CCN(CC)CCCNc1nccc2c(C)c3c(cc12)c1cnccc1n3C measure=TGI reported_value="0.779 µM"
compound=CC(C)[N+]([O-])(CCCNc1c2ccccc2nc2cccc([N+](=O)[O-])c12)C(C)C measure=TGI reported_value="1.58 µM"
compound="N#CC12C(=O)N3C(=NC(c4ccco4)NC3c3ccco3)C1(C#N)C(c1ccco1)NC1=C2CCCC1 (centres undefined)" measure=TGI reported_value="> 100 µM"
compound=C=CN(C(=O)N1CCN(c2cc3c(cc2F)c(=O)c(C(=O)O)cn3C2CC2)CC1)c1nc(-c2ccc(OC)cc2)cs1 measure=TGI reported_value="> 100 µM"

* * *

Recorded TGI by entry
system: A498 renal; assay: NCI tumour cell line growth inhibition, 48 h
measure: TGI

compound=Cc1cnc2n1S(=O)(=O)c1cc(C(=O)Nc3cccc4nsnc34)c(Cl)cc1S2 target_system="A498 renal" measure=TGI reported_value="34.8 µM"
compound="COc1ccc(C2SC(N)=Nc3c2c(C)nn3C(=O)c2ccccc2O)cc1OC (centres undefined)" target_system="A498 renal" measure=TGI reported_value="> 10 µM"
compound=O=c1ccc2ccc(OP(=O)(O)O)cc2o1 target_system="A498 renal" measure=TGI reported_value="> 100 µM"
compound="C/C(=N\\N=C(N)N)C(CN1CCCCC1)C(c1ccccc1)c1c(O)c2ccccc2oc1=O (centres undefined)" target_system="A498 renal" measure=TGI reported_value="> 100 µM"
compound=O=C1NC(=C(Cl)Cl)/C(=N/S(=O)(=O)N2CCCCC2)N1 target_system="A498 renal" measure=TGI reported_value="25.4 µM"
compound=O=c1c2c(nc3n1CCS3)[nH]c1cc([N+](=O)[O-])ccc12 target_system="A498 renal" measure=TGI reported_value="> 100 µM"
compound=O=C(Nc1ccccc1)c1cc(S(=O)(=O)Nc2n[nH]c(=O)n2-c2ccccc2)c(S)cc1Cl target_system="A498 renal" measure=TGI reported_value="> 100 µM"
compound="Cc1ccc(CC2(C(=O)O)Cc3ccc(C)cc3C2)cc1 (centres undefined)" target_system="A498 renal" measure=TGI reported_value="> 100 µM"
compound="C/C=C(\\C)c1cc(=O)c2c(C)cc3c(c2o1)C(=O)c1c(O)c(C2CC(C)(N(C)C)C(OC(C)=O)C(C)O2)cc(C2CC(N(C)C)C(O)C(C)O2)c1C3=O (centres undefined)" target_system="A498 renal" measure=TGI reported_value="11.1 µM"

* * *

system: T-47D breast; test: NCI tumour cell line growth inhibition, 48 h
Recorded TGI by entry
measure: TGI

compound=O=C1/C(=C\c2ccc(Cl)cc2)N=C(c2ccccc2)N1n1c(=O)cn[nH]c1=S measure=TGI reported_value="28.6 µM"
compound=CC(=O)Nc1ccc2c(c1)/C(=C\c1ccc([N+](C)(C)C)cc1)c1ccccc1-2 measure=TGI reported_value="90.1 µM"
compound="COC1/C=C(C)/C=C/C(C)/C=C/C(=O)OC(/C(C)=C/C=C(\\C)CNC(=O)[C@H](CO)NC=O)C(C)/C=C/C=C/C(OC)CC/C=C(C)/C=C/C1 (some centres undefined)" measure=TGI reported_value="> 1 µM"
compound=Cc1[nH]c(=O)nc2nc3cc(Cl)cc(Cl)c3c(NC(C)(CO)CO)c12 measure=TGI reported_value="> 100 µM"

* * *

system: RXF 393 renal; assay: NCI tumour cell line growth inhibition, 48 h
Recorded TGI by entry
measure: TGI (µM)

compound=CCC[C@H]1O[C@@H]2CC(=O)O[C@@H]2C2=C1C(=O)C=CC2=O inequality_operator== reported_value=30.4
compound="OC1(C(Sc2cc(C(F)(F)F)cc(C(F)(F)F)c2)Sc2cc(C(F)(F)F)cc(C(F)(F)F)c2)C=CCCC1 (stereo not given)" inequality_operator== reported_value=4.77
compound=O=c1oc2ccc(I)cc2c(=O)n1-c1ccc(Br)cc1F inequality_operator== reported_value=4.39
compound=Cc1c(-c2cnccn2)ssc1=S inequality_operator== reported_value=80.9
compound="COc1cc2c(cc1OC(C)C)[C@H](c1ccc(Cl)cc1)N(c1ccc(N(C)CC3CCC(N4CCN(C)C(=O)C4)CC3)cc1)C(=O)C2 (stereo not given in full)" inequality_operator== reported_value=7.92
compound=CCOC(=O)Cc1c(C)c2cc(C(=O)c3ccccc3)c(O)cc2oc1=O inequality_operator=> reported_value=100
compound="O=C1NC2c3c(I)sc(I)c3C(=O)C2O1 (stereo not given)" inequality_operator== reported_value=12.7
compound=CN(Cc1ccccc1)Cn1ccnc1 inequality_operator=> reported_value=100
compound="CCOc1cc(C2CC(c3ccc(NS(=O)(=O)c4cc([N+](=O)[O-])ccc4C)cc3)=NN2S(=O)(=O)c2cc([N+](=O)[O-])ccc2C)ccc1O (stereo not given)" inequality_operator== reported_value=70.7
compound=Cc1[nH]c(=O)nc2nc3cc(Cl)cc(Cl)c3c(NC(C)(CO)CO)c12 inequality_operator=> reported_value=100

* * *

tested on: SNB-75 CNS; experiment: NCI tumour cell line growth inhibition, 48 h
Recorded TGI by entry
measure: TGI (µM)

compound=O=c1c2c(nc3n1CCS3)[nH]c1cc([N+](=O)[O-])ccc12 measure=TGI unit_abbreviation=µM inequality_operator=> reported_value=100
compound="COC(COC(N)=O)C1=C(N2CC2)C(=O)C(C)=C(N2CC2)C1=O (configuration not stated)" measure=TGI unit_abbreviation=µM inequality_operator== reported_value=0.322
compound="CCOC(OC(C)=O)[C@@H]1C=C[C@H](C)N(c2ccc([N+](=O)[O-])cc2)O1 (some centres not stated)" measure=TGI unit_abbreviation=µM inequality_operator== reported_value=25.9
compound="CCCCN1C(=O)C2Cc3c([nH]c4ccccc34)C(c3cccc(O)c3)N2C1=O (configuration not stated)" measure=TGI unit_abbreviation=µM inequality_operator== reported_value=32.7
compound=Cc1cc(S(=O)(=O)NC2=NCc3nc4ccccc4n32)c(S)cc1Cl measure=TGI unit_abbreviation=µM inequality_operator== reported_value=60.4
compound="C=C(C)[C@H]1CC[C@@]2(C)C(C1)[C@H](C)CC[C@@H]2O (some centres not stated)" measure=TGI unit_abbreviation=µM inequality_operator=> reported_value=100
compound=Cc1cc2nc(NCCN)n(Cc3ccc(F)c(Cl)c3)c2cc1C measure=TGI unit_abbreviation=µM inequality_operator== reported_value=23.4
compound="Cc1ccc(C)c(N2C(=O)C(=O)C(c3nc4ccccc4s3)/C(=N/N)C2=O)c1 (configuration not stated)" measure=TGI unit_abbreviation=µM inequality_operator=> reported_value=100
compound=CC(=O)OCCn1cnc2c(NCC=C(C)C)ncnc21 measure=TGI unit_abbreviation=µM inequality_operator=> reported_value=100
compound="CC1(C)OC2C(CCP(=O)(O)O)OC(c3nc(C(N)=O)cs3)C2O1 (configuration not stated)" measure=TGI unit_abbreviation=µM inequality_operator=> reported_value=100
compound="CC(C)(C)[Si](OC1CCOC1=O)(c1ccccc1)c1ccccc1 (configuration not stated)" measure=TGI unit_abbreviation=µM inequality_operator=> reported_value=100
compound="COc1ccc(C(CC2(c3ccc(OC)cc3)SCCCS2)NC(C)=O)cc1 (configuration not stated)" measure=TGI unit_abbreviation=µM inequality_operator=> reported_value=100
compound="CC1CC(N)=C(C#N)C1(C#N)C#N (configuration not stated)" measure=TGI unit_abbreviation=µM inequality_operator=> reported_value=100
compound=O=C(CSc1nc2c(n1Nc1ccccc1)-c1ccccc1SC2)Nc1nc(-c2ccc(Cl)cc2)cs1 measure=TGI unit_abbreviation=µM inequality_operator== reported_value=23.8
compound=O=C1C=C(Nc2ccc(Cl)cc2Cl)c2ccccc2C1=O measure=TGI unit_abbreviation=µM inequality_operator== reported_value=70.4
compound="CCOC(=O)Cc1csc(NC(NC(=O)OCC)(C(=O)OCC)C(F)(F)F)n1 (configuration not stated)" measure=TGI unit_abbreviation=µM inequality_operator=> reported_value=100
compound="NC(=O)C1CCCN1C(=O)C(Cc1cnc[nH]1)NC(=O)C1CCCC1 (configuration not stated)" measure=TGI unit_abbreviation=µM inequality_operator=> reported_value=100
compound=COc1cc(/C=C2\C(=O)N(C(=O)Cc3ccccc3)N=C2C)cc(OC)c1OC measure=TGI unit_abbreviation=µM inequality_operator=> reported_value=100
compound=O=C(O)CCNCC(=O)O measure=TGI unit_abbreviation=µM inequality_operator=> reported_value=100
compound=Cc1ccc2c(c1)C(=C(C#N)C#N)CCCS2(=O)=O measure=TGI unit_abbreviation=µM inequality_operator=> reported_value=100
compound=COc1ccc(Nc2nc3cc(N)cc(N)c3nc2-c2ccccc2)cc1 measure=TGI unit_abbreviation=µM inequality_operator== reported_value=42.6
compound="COc1cc(C(=O)NC2CCc3cc(OC)c(OC)c(OC)c3-c3ccc(OC)c(=O)cc32)cc(OC)c1OC (configuration not stated)" measure=TGI unit_abbreviation=µM inequality_operator== reported_value=18.3
